testDetails: Partition coefficient (logP)
Assay type: physicochemical
assaySetup: octanol/water
measuredQuantity: logP
// return just the number, without any unit appended

Entry CC1(C)N=C(N)N=C(N)N1c1ccc(CCCCc2ccc(S(=O)(=O)F)cc2Cl)c(Cl)c1 : reported logP = ?
2.4
